- test_system: Bile acid receptor (Homo sapiens)
- method: ATG_IR1_CIS: Attagene CIS-FACTORIAL HepG2 Assay for human Nuclear Receptor Subfamily 1 Group H Member 4 (NR1H4), IR1 submotif (AID 2282946)
- study_conditions: IR1 reporter transcription, actives raise or lower the signal
The source made the active and inactive calls. Rule for the calls: active = hit-call score of the fitted dose curve at least 0.9, where 1 is the maximum; inactive = score below 0.9.
Could you please pick one outcome from this set? active, inactive

The examples below pair each entry with its known result.
>>> cat("CCOC(=O)/C=C(C)/C=C/C[C@@H](C)CCCC(C)C")
"active"
>>> cat("O=C(O)Cc1ccccc1")
"inactive"

Outcome logged for C[C@@H](Oc1ccc(Cl)cc1Cl)C(=O)O in this assay:
inactive

Record request — test call for O=[N+]([O-])c1c(Cl)c(Cl)cc(Cl)c1Cl
inactive

# outcome recorded in this test, key = O=[N+]([O-])c1ccc2c3c(cccc13)CC2
inactive

Please share the test call associated with CCOP(=S)(OCC)Oc1nc(Cl)c(Cl)cc1Cl .
active

Hi team, can someone confirm the assay call for O=C(O)C(F)(F)C(F)(F)C(F)(F)C(F)(F)C(F)(F)C(F)(F)C(F)(F)C(F)(F)C(F)(F)C(F)(F)F ?
inactive

Give the logged outcome of this assay for the following compound: Nc1cccc(Cl)c1
inactive

---

- Read-out: CYP4A11 (gene 1579)
- method: LTEA_HepaRG_CYP4A11: Life Technologies and Expression Analysis (LTEA) Assay for CYP4A11 using HepaRG (AID 2283486)
- study_conditions: mRNA level, 48 h; actives raise or lower the signal
Activity calls are given as the source filed them. The calls were made as follows: active = hit-call score of the fitted dose curve at least 0.9, where 1 is the maximum; inactive = score below 0.9.
// one of T for active, F for inactive, no free text

Please review the entries below; each comes with its answer.
>>> cat("CC(C)(OO)c1ccccc1")
"F"
>>> cat("CC(C)(C)CC(C)(C)c1ccc(O)cc1")
"T"
>>> cat("CCOP(=S)(OCC)SCSP(=S)(OCC)OCC")
"F"
>>> cat("CC12CC1(C)C(=O)N(c1cc(Cl)cc(Cl)c1)C2=O (stereo not drawn)")
"T"
>>> cat("CC(C)(C)c1cc(O)ccc1O")
"F"

Per the assay record, what outcome was assigned to Oc1cccc2cccnc12 ?
F

Check the results log: what was the call for C=C(C)C(=O)[O][Sn]([CH2]CCC)([CH2]CCC)[CH2]CCC ?
T

For this compound, state the assay outcome: ClC1(Cl)C2(Cl)C3(Cl)C4(Cl)C(Cl)(Cl)C5(Cl)C3(Cl)C1(Cl)C5(Cl)C24Cl (stereo not drawn)
T

For CCCCCCCCc1ccc(O)cc1 , which call appears in the assay record?
T

---

- Read-out: Interleukin-8 (IL8), CXCL8 (gene 3576)
- method: BSK_3C_IL8: BioMAP Diversity Plus: 3C Assay for Interleukin-8 (IL8) Biomarker Activity (AID 2283020)
- study_conditions: primary human endothelial cells (HUVEC); actives raise or lower the signal
The source made the active and inactive calls. The calls were made as follows: active = hit-call score of the fitted dose curve at least 0.9, where 1 is the maximum; inactive = score below 0.9.
measure: AC50

Recorded AC50, per entry:
>>> data_value("O=c1[nH]c(=O)[nH]c(=O)[nH]1")
"inactive"
>>> data_value("Oc1ccc(-c2ccccc2)cc1")
"inactive"
>>> data_value("CCOC(=O)/C=C(C)/C=C/C[C@@H](C)CCCC(C)C")
"inactive"
>>> data_value("CCC(=O)C(CC(C)N(C)C)(c1ccccc1)c1ccccc1 (centres undefined)")
"inactive"

Suppose we examine the compound CCCCC(CC)CO[N+](=O)[O-] (centres undefined) ; what AC50 value has been reported?
inactive

Fill in the blank: the reported AC50 of Oc1c(I)cc(I)cc1I is ____.
11.5 µM (active)
